B1: library; numbered along this chain (parent)
chain: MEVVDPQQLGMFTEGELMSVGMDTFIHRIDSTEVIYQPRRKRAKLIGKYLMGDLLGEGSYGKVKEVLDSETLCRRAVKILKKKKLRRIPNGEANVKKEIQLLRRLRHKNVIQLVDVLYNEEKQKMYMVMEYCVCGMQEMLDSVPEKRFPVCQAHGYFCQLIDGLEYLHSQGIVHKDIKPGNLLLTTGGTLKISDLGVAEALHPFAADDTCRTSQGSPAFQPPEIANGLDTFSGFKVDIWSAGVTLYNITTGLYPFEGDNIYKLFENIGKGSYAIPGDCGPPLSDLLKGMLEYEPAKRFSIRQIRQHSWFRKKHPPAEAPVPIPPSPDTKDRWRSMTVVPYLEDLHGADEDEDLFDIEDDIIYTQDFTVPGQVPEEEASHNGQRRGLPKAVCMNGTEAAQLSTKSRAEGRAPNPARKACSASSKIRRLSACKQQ

# Variants of: B1
# Assay text: STK11 functional score (HeLa growth suppression), rescaled enrichment; synonymous median = 1, nonsense median = 0 (normalised score)
# Settings: with HeLa; variant type: missense
Recorded metric: STK11 functional score
Give bare numbers.

| Mutation spec | Recorded metric | Endpoint result |
| --- | --- | --- |
| V133S | STK11 functional score | 1.06 |
| R405P | STK11 functional score | 1.27 |
| P315E | STK11 functional score | 1.57 |
| E92S | STK11 functional score | 0.979 |
| G91N | STK11 functional score | 1.38 |
| K388T | STK11 functional score | 1.42 |

Go through the list and state STK11 functional score for each entry.
1. L182V
2. V390D
3. F157V
4. R405V
5. E293G
6. T402S
7. K312A
8. N94F

Result string:
1. 0.907
2. 1.4
3. -0.0226
4. 1.62
5. 0.451
6. 1.31
7. 1.25
8. 0.728

Please state, for each entry, its recorded STK11 functional score.
1. L228A
2. D194S
3. L184S
4. D330Q
5. A414K
6. L160W
7. S334Q

Result string:
1.66
-0.236
0.61
0.163
1.55
0.0949
1.53

Query string: Report measured STK11 functional score; entry is "C151H"
Result string: 0.883
